- Tested on: MOLT-4
- assay info: NCI tumour cell line growth inhibition, 48 h
The source made the active and inactive calls. No stated cut-off is given here; in the data, active = GI50 up to about 1.1 µM and inactive = higher.

{"compound": "O=C(N/N=C\\c1cccc(O)c1)c1ccncc1", "experimental target": "MOLT-4", "GI50": "> 100 µM (inactive)"}
{"compound": "CSC(=S)OC1CC(n2cnc3c(NC(=O)c4ccccc4)ncnc32)OC1CO[Si](C)(C)C(C)(C)C (stereo unspecified)", "experimental target": "MOLT-4", "GI50": "2.03 µM (inactive)"}
{"compound": "CC(=O)Oc1ccc(N2C(=O)C3c4[nH]c5ccccc5c4C4CCC(C(C)(C)C)CC4C3C2=O)cc1 (stereo unspecified)", "experimental target": "MOLT-4", "GI50": "10 µM (inactive)"}
{"compound": "CCOC(=O)NC1CC2CCC1(OC)C=C2C (stereo unspecified)", "experimental target": "MOLT-4", "GI50": "> 100 µM (inactive)"}
{"compound": "CC1OC2OC3C(OCC(O)C3O)OC(=O)[C@]34CCC(C)(C)CC3C3=CCC5[C@@]6(C)C[C@H](O)[C@H](OC7OC(CO)C(O)C(O)C7OC7OCC(OC(=O)CC(C)(O)CC(=O)OC1C(O)C2O)C(O)C7O)[C@@](C)(CO)C6CC[C@@]5(C)[C@]3(C)CC4 (stereo partly specified)", "experimental target": "MOLT-4", "GI50": "8.89 µM (inactive)"}
{"compound": "COC(=O)C1Cc2cc3c(cc2C1=O)CCC3 (stereo unspecified)", "experimental target": "MOLT-4", "GI50": "68.7 µM (inactive)"}
{"compound": "O=C1CC(=O)NC(NNS(=O)(=O)c2ccc(Cl)cc2)=N1", "experimental target": "MOLT-4", "GI50": "> 100 µM (inactive)"}
{"compound": "COc1ccc(C(C)NNC(=O)c2ccncc2)cc1F (stereo unspecified)", "experimental target": "MOLT-4", "GI50": "> 100 µM (inactive)"}
{"compound": "COc1ccc2c(c1)CC[C@@H]1C2CC[C@](C)(C#N)C1CC#N (stereo partly specified)", "experimental target": "MOLT-4", "GI50": "> 100 µM (inactive)"}
{"compound": "CCOC(=O)C(Cc1c(C=O)[nH]c2ccccc12)(NC(=O)c1ccccc1)C(=O)OCC", "experimental target": "MOLT-4", "GI50": "6.65 µM (inactive)"}
{"compound": "Nc1ncnc2c1ccn2COC(CO)CO", "experimental target": "MOLT-4", "GI50": "51.9 µM (inactive)"}
{"compound": "COc1ccc(/C=C2\\N=C(c3ccccc3)OC2=O)c(OCc2ccccc2)c1", "experimental target": "MOLT-4", "GI50": "14.1 µM (inactive)"}
{"compound": "O=C1C(NCCc2ccc(O)c([N+](=O)[O-])c2)=CC(=O)c2[nH]cnc21", "experimental target": "MOLT-4", "GI50": "19.8 µM (inactive)"}
{"compound": "Cc1cc(C)nc(NC(=S)Nc2ccc(Cl)cc2)c1", "experimental target": "MOLT-4", "GI50": "> 100 µM (inactive)"}
{"compound": "Oc1nc2cc(Cl)ccc2nc1/C(=N\\Nc1ccccc1)C(O)c1ccc2c(c1)OCO2 (stereo unspecified)", "experimental target": "MOLT-4", "GI50": "> 100 µM (inactive)"}
{"compound": "N/C(=N\\c1cccc(Cl)c1)c1ccccc1N", "experimental target": "MOLT-4", "GI50": "> 100 µM (inactive)"}
{"compound": "COc1ccc(-c2cc(-c3ccc(Nc4ccnc5cc(C(F)(F)F)ccc45)cc3)nc(N)c2C#N)c2ccccc12", "experimental target": "MOLT-4", "GI50": "53.3 µM (inactive)"}
{"compound": "CC(C)NC(=O)OCc1c(COC(=O)NC(C)C)n(C)c2c1ccc1sccc12", "experimental target": "MOLT-4", "GI50": "10.3 µM (inactive)"}
{"compound": "NC(CNc1ccc(O)cc1)C(=O)O (stereo unspecified)", "experimental target": "MOLT-4", "GI50": "> 100 µM (inactive)"}
{"compound": "O=c1[nH]c2ccsc2c(=O)n1COCc1ccccc1", "experimental target": "MOLT-4", "GI50": "> 100 µM (inactive)"}
{"compound": "O=C(C/C(=N\\NC(=O)C[n+]1ccccc1)C(=O)Nc1nc2ccc([N+](=O)[O-])cc2s1)CC(c1ccccc1)c1c(O)c2ccccc2oc1=O (stereo unspecified)", "experimental target": "MOLT-4", "GI50": "> 100 µM (inactive)"}

Recorded values, source ChEMBL document CHEMBL1201862.
